system: PC-3; assay: NCI tumour cell line growth inhibition, 48 h
Activity calls are given as the source filed them. Cut-off read from the data, not from the text of the source: active = GI50 up to about 1.1 µM and inactive = higher.
attribute-measured: GI50

Solved entries (count: 4):
>  <compound>
COc1cc(OC)c(-c2oc3ccccc3c(=O)c2O)c(OC)c1

>  <GI50>
5.69 µM (inactive)

$$$$
>  <compound>
Oc1cccc2c(Br)ccnc12

>  <GI50>
4.17 µM (inactive)

$$$$
>  <compound>
CC[C@@]1(O)C(=O)OCc2c1cc1n(c2=O)Cc2c-1nc1ccccc1c2/C=N/NC(=O)C[N+](C)(C)C

>  <GI50>
9.59 µM (inactive)

$$$$
>  <compound>
O=C(O)C1C2C=CC(O2)C1C(=O)NCc1cccnc1 (stereo not given)

>  <GI50>
> 100 µM (inactive)

$$$$

Here is another compound to look at.
Item CC[C@@]1(O)C(=O)OCc2c1cc1n(c2=O)Cc2c-1nc1ccccc1c2/C=N/c1ccccc1N[C@@H]1c2cc3c(cc2[C@@H](c2cc(OC)c(O)c(OC)c2)[C@H]2C(=O)OC[C@@H]21)OCO3 with PC-3 - GI50?
0.284 µM (active)

====

test system: SR; experiment: NCI tumour cell line growth inhibition, 48 h
Calls of active or inactive are those of the source. Rule as the data show it: active = GI50 up to about 1.1 µM and inactive = higher.
Choose one outcome from this list and give only that: active, inactive

>  <compound>
Oc1cccc2c(Br)ccnc12

>  <group>
active

$$$$

Which outcome was entered for the compound CCOC(=O)C1=NN(c2ccc(C)cc2)C2=CC(C)=NN(C)C(=S)N21 in this test?
inactive

Which outcome was entered for the compound S=C(N/N=C(/c1ccccc1)c1ccccn1)N(Cc1ccccn1)Cc1ccccn1 in this test?
active

Which outcome was entered for the compound COC(=O)CSc1nnc(-c2ccc(O)c([N+](=O)[O-])c2)[nH]1 in this test?
inactive

Which outcome was entered for the compound O=c1oc2c/c(=C\c3ccccn3)c(=O)c3cccc1c3-2 in this test?
inactive

Which outcome was entered for the compound COc1nc(/C=N/NC(N)=S)nc(OC)n1 in this test?
inactive

Which outcome was entered for the compound CCN(CC)CCNc1ccc2nnn3c4ccccc4c(=O)c1c23 in this test?
inactive

Which outcome was entered for the compound O=C(O)CCC(NC(=O)c1ccc(Oc2nc3ccccc3nc2C(=O)O)cc1)C(=O)O (configuration not stated) in this test?
inactive

Which outcome was entered for the compound CC(CN1CC(=O)NC(=O)C1)N1CC(=O)NC(=O)C1 (configuration not stated) in this test?
inactive

Which outcome was entered for the compound COc1ccc(/C=N\N(C)Cc2cccc3ccsc23)cc1 in this test?
inactive

====

test system: SF-295; assay: NCI tumour cell line growth inhibition, 48 h
Active and inactive are the calls of the source. Cut-off read from the data, not from the text of the source: active = GI50 up to about 1.1 µM and inactive = higher.
Consider the following molecules and their measured GI50 readings.

>  <molecule>
CCOC(=O)/C(=C\n1c(=O)sc2ccccc21)C(=O)c1ccccc1

>  <GI50>
88.1 µM (inactive)

$$$$

Using the record for CN(C)CCNc1nc2c(c(=O)n(C)c(=O)n2C)n1C , report its GI50.
> 100 µM (inactive)

Using the record for O=[N+]([O-])c1ccc(Cl)cc1C1SCc2nc3ccccc3n21 (stereo not given) , report its GI50.
85.7 µM (inactive)

Using the record for Nc1ccc2cc3ccc(N)cc3nc2c1 , report its GI50.
2.42 µM (inactive)

Using the record for COc1ccc([C@H]2c3cc4c(cc3OC(O)(CO)[C@H]2C(=O)O)OCO4)c(OC)c1.COc1ccc([C@H]2c3cc4c(cc3OC3(O)COC(=O)[C@@H]23)OCO4)c(OC)c1 (stereo not given in full) , report its GI50.
> 100 µM (inactive)
